# Experiment: Cytotoxicity of drugs, absorbance at 260 nm of lysed cell monolayers
# Test conditions: monkey, vero cells, ID50 Vero 91 hrs., drug concentration which reduces the OD260 of lysed cells by 50%; table head 91 hrs., b38 96 hours
Attribute measured: CC50 at 91 h (µg/mL)

Molecule	Test value
CC(=O)O[C@@H]1[C@@H](O)[C@H](O[C@H]2[C@H](OC(=O)[C@H]3CC[C@@H]4[C@H](C3)O[C@@]3(C[C@H](OC(=O)/C=C/c5ccccc5)[C@H](C)CO3)[C@]43CO3)O[C@H](C)[C@@H](O)[C@@H]2OC(C)=O)O[C@H](C)[C@H]1O [Phyllanthoside]	3.57
